Reported melting point values for the following compounds.
RESULT_TYPE: melting point

compound="O=C(N[C@H](Cc1ccccc1)[C@@H](O)CN1CCN(Cc2ccc(F)cc2)CC1)[C@H](Cc1ccccc1)N1C(=O)c2ccccc2C1=O [Compound 6j]" result_type="melting point" recorded_result="121 to 123 °C"
compound="O=C(N[C@H](Cc1ccccc1)[C@@H](O)CN1CCN(Cc2ccc(Br)cc2)CC1)[C@H](Cc1ccccc1)N1C(=O)c2ccccc2C1=O [Compound 6n]" result_type="melting point" recorded_result="131 to 133 °C"
compound="CC(C)C[C@@H](C(=O)N[C@H](Cc1ccccc1)[C@@H](O)CN1CCN(Cc2ccc(Br)cc2)CC1)N1C(=O)c2ccccc2C1=O [Compound 6m]" result_type="melting point" recorded_result="143 to 145 °C"
compound="O=C(N[C@H](Cc1ccccc1)[C@@H](O)CN1CCC(N2CCCCC2)CC1)[C@H](Cc1ccccc1)N1C(=O)c2ccccc2C1=O [Compound 6q]" result_type="melting point" recorded_result="134 to 136 °C"
compound="CC(C)C[C@@H](C(=O)N[C@H](Cc1ccccc1)[C@@H](O)CN1CCN(C[C@H](O)[C@@H](Cc2ccccc2)NC(=O)[C@H](CC(C)C)N2C(=O)c3ccccc3C2=O)CC1)N1C(=O)c2ccccc2C1=O [Compound 6r]" result_type="melting point" recorded_result="141 to 143 °C"
compound="CCN1CCN(C[C@H](O)[C@@H](Cc2ccccc2)NC(=O)[C@H](CC(C)C)N2C(=O)c3ccccc3C2=O)CC1 [Compound 6e]" result_type="melting point" recorded_result="117 to 119 °C"

###

Reported melting point values for the following molecules.
RESULT_TYPE: melting point

molecule=CC(C)C[C@@H](C(=O)N[C@H](Cc1ccccc1)[C@@H](O)CN1CCN(Cc2ccc(F)cc2)CC1)N1C(=O)c2ccccc2C1=O result_type="melting point" recorded_result="134 to 136 °C"
molecule=CC(C)(C)OC(=O)N[C@H](Cc1ccccc1)[C@@H](O)CN1CCN(Cc2ccc(Br)cc2)CC1 result_type="melting point" recorded_result="111 to 114 °C"
molecule=CC(C)(C)OC(=O)N[C@H](Cc1ccccc1)[C@@H](O)CN1CCN(Cc2ccc(F)cc2)CC1 result_type="melting point" recorded_result="108 to 110 °C"
molecule=CCN1CCN(C[C@H](O)[C@@H](Cc2ccccc2)NC(=O)[C@H](Cc2ccccc2)N2C(=O)c3ccccc3C2=O)CC1 result_type="melting point" recorded_result="108 to 111 °C"
molecule="CCC(C)[C@@H](C(=O)N[C@H](Cc1ccccc1)[C@@H](O)CN1CCN(C[C@H](O)[C@@H](Cc2ccccc2)NC(=O)[C@H](C(C)CC)N2C(=O)c3ccccc3C2=O)CC1)N1C(=O)c2ccccc2C1=O (stereo partly shown)" result_type="melting point" recorded_result="131 to 134 °C"
molecule=CCN1CCN(C[C@H](O)[C@@H](Cc2ccccc2)NC(=O)OC(C)(C)C)CC1 result_type="melting point" recorded_result="89 to 91 °C"
molecule=CCN1CCN(C[C@H](O)[C@@H](Cc2ccccc2)NC(=O)[C@H](C(C)C)N2C(=O)c3ccccc3C2=O)CC1 result_type="melting point" recorded_result="108 to 111 °C"

###

test system: human erythrocytes; experiment: In vitro hemolytic activity; assay type: cell-based; conditions: 3.125 to 100 μg/mL, 37°C, 1 h
RESULT_TYPE: hemolysis of human erythrocytes (in words)

compound="CC[C@@H](C)[C@@H](C(=O)N[C@H](Cc1ccccc1)[C@@H](O)CN1CCN(C)CC1)N1C(=O)c2ccccc2C1=O [Compound 6d]" recorded_result="lower hemolysis"
compound="CC(C)C[C@@H](C(=O)N[C@H](Cc1ccccc1)[C@@H](O)CN1CCN(C[C@H](O)[C@@H](Cc2ccccc2)NC(=O)[C@H](CC(C)C)N2C(=O)c3ccccc3C2=O)CC1)N1C(=O)c2ccccc2C1=O [Compound 6r]" recorded_result="least hemotoxic"
compound="CN1CCN(C[C@H](O)[C@@H](Cc2ccccc2)NC(=O)OC(C)(C)C)CC1 [Compound 5a]" recorded_result="least hemotoxic"
compound="O=C(N[C@H](Cc1ccccc1)[C@@H](O)CN1CCN(Cc2ccc(F)cc2)CC1)[C@H](Cc1ccccc1)N1C(=O)c2ccccc2C1=O [Compound 6j]" recorded_result="lower hemolysis"
compound="CC(C)(C)OC(=O)N[C@H](Cc1ccccc1)[C@@H](O)CN1CCC(N2CCCCC2)CC1 [Compound 5e]" recorded_result="lower hemolysis"

###

Reported melting point values for the following compounds.
RESULT_TYPE: melting point

smiles_repr=CC[C@@H](C)[C@@H](C(=O)N[C@H](Cc1ccccc1)[C@@H](O)CN1CCN(C)CC1)N1C(=O)c2ccccc2C1=O recorded_result="104 to 106 °C"
smiles_repr=CC(C)[C@@H](C(=O)N[C@H](Cc1ccccc1)[C@@H](O)CN1CCN(Cc2ccc(F)cc2)CC1)N1C(=O)c2ccccc2C1=O recorded_result="137 to 139 °C"
smiles_repr=CN1CCN(C[C@H](O)[C@@H](Cc2ccccc2)NC(=O)[C@H](Cc2ccccc2)N2C(=O)c3ccccc3C2=O)CC1 recorded_result="101 to 103 °C"
smiles_repr=CC(C)[C@@H](C(=O)N[C@H](Cc1ccccc1)[C@@H](O)CN1CCN(C)CC1)N1C(=O)c2ccccc2C1=O recorded_result="91 to 93 °C"
smiles_repr=CC(C)C[C@@H](C(=O)N[C@H](Cc1ccccc1)[C@@H](O)CN1CCN(C)CC1)N1C(=O)c2ccccc2C1=O recorded_result="141 to 143 °C"
smiles_repr=CC(C)[C@@H](C(=O)N[C@H](Cc1ccccc1)[C@@H](O)CN1CCN(C[C@H](O)[C@@H](Cc2ccccc2)NC(=O)[C@H](C(C)C)N2C(=O)c3ccccc3C2=O)CC1)N1C(=O)c2ccccc2C1=O recorded_result="123 to 125 °C"
